molecular target: MAGL protein (Homo sapiens); test: 2-AG assay: MAGL inhibitory activity by hydrolysis of 2-arachidonoylglycerol to arachidonic acid, followed by mass spectrometry; format: biochemical; conditions: 8 μM 2-arachidonoylglycerol, 15 min preincubation, 30 min reaction at RT, RapidFire MS readout
measure name: IC50 (nM)
Numbers only, in nM.

Below: 5 molecules and their reported IC50.
| molecule | measure name | endpoint result |
| --- | --- | --- |
| O=C(N1CC2(CC(Cc3cncc(F)c3)C2)C1)N1CC2(CC(c3nnc(C4CC4)[nH]3)C2)C1 | IC50 | 2.37 |
| CC(C)c1cc(C(C)C)n(-c2ccc(C3CN(C(=O)N4CC5(CC(c6nc(C7(O)CC7)n[nH]6)C5)C4)C3)cc2)n1 | IC50 | 0.66 |
| O=C(N1CC2(CCN(S(=O)(=O)C34CC(C(F)(F)F)(C3)C4)CC2)C1)N1CC2(CC(c3nnc(C4CC4)[nH]3)C2)C1 | IC50 | 17.1 |
| O=C(N1CC(c2ccc(C3(C(F)(F)F)CC3)cc2)C1)N1CC2(CC(c3nnc(C4(O)CC4)[nH]3)C2)C1 | IC50 | 0.91 |
| O=C(N1CC2(CC(Cc3nc(C(F)(F)F)no3)C2)C1)N1CC2(CC(c3nc(C4CC4)n[nH]3)C2)C1 | IC50 | 0.21 |

Quick batch: IC50 for everything below.
1. N=S(=O)(c1cccc(CC2CC3(C2)CN(C(=O)N2CC4(CC(c5nc(C6CC(F)(F)C6)n[nH]5)C4)C2)C3)c1)C(F)(F)F (centres unmarked)
2. O=C(N1CC2(CC(Cn3cnc(C(F)(F)F)c3)C2)C1)N1CC2(CC(c3nnc(C4(O)CC4)[nH]3)C2)C1
3. O=C(N1CC2(CC(Cc3ccc(OC(F)(F)F)nc3)C2)C1)N1CC2(CC(c3nc(C4CC4)n[nH]3)C2)C1

[9.75, 37.9, 0.92]

###

Could you please report measured pIC50 for the items listed next?
Target protein (sequence): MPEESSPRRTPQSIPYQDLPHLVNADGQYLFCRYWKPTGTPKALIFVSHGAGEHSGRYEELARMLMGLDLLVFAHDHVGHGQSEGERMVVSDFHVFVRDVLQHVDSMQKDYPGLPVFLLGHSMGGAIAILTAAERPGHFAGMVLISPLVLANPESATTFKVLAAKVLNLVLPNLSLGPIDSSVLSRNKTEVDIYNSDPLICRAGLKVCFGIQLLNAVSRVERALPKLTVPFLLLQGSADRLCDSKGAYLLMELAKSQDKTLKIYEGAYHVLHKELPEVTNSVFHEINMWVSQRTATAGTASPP
One number for each entry, as −log10 of the molar value.

| molecule | pIC50 |
| --- | --- |
| O=C(N1CC2(CC(Cc3ccc(Cl)cn3)C2)C1)N1CC2(CC(c3ncn[nH]3)C2)C1 [compound 831] | 5.91 |
| O=C(N1CC(c2ccc(N3CC(O)(C(F)(F)F)C3)nc2)C1)N1CC2(CC(c3nc(C4CC(F)(F)C4)n[nH]3)C2)C1 [compound 646] | 6.37 |
| O=C(N1CC(C23CC(CNC4(C(F)(F)F)CC4)(C2)C3)C1)N1CC2(CC(c3nnc(C4CC4)[nH]3)C2)C1 [compound 341] | 9.92 |
| O=C(N1CC(C23CC(c4cc(C5CC5)n[nH]4)(C2)C3)C1)N1CC2(CC(c3nc(C4CC(F)(F)C4)n[nH]3)C2)C1 [compound 702] | 6.59 |
| CS(=O)(=O)c1cnn(CC2CC3(C2)CN(C(=O)N2CC4(CC(c5nc(C6CC6)n[nH]5)C4)C2)C3)c1 [compound 953] | 7.95 |

Recall and state the measured pIC50 for O=C(N1CC2(CC(c3nnc(C4CCC4)[nH]3)C2)C1)N1CC2(CN(Cc3ccc(F)cc3F)C2)C1 [Example 158] .
6.82

###

Would you mind telling me the reported pIC50 of each entry?
Target: MAGL protein (Homo sapiens)
Sequence (Q99685 1-303): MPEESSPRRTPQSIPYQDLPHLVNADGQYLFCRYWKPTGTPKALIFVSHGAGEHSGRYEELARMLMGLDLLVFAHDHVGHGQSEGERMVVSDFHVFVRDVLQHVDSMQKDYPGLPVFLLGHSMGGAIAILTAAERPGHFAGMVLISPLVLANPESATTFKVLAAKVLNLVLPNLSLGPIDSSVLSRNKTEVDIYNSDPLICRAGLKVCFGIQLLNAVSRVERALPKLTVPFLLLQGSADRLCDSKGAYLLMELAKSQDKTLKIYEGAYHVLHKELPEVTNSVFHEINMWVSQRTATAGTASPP
Give bare numbers, as −log10 of the molar value.

Please review the following examples before continuing.
| molecule | pIC50 |
| --- | --- |
| COc1nc(C(F)(F)F)cnc1CC1CC2(C1)CN(C(=O)N1CC3(CC(c4nc(C5CC5)n[nH]4)C3)C1)C2 | 10.05 |
| O=C(N1CC2(CC(Cn3nccc3C3CC3)C2)C1)N1CC2(CC(c3nc(C4CC4)n[nH]3)C2)C1 | 9.57 |
| N=[S@](=O)(c1cccc(CC2CC3(C2)CN(C(=O)N2CC4(CC(c5nnc(C6CC6)[nH]5)C4)C2)C3)c1)C(F)(F)F (single isomer, unassigned) | 10.22 |

Please look at the items below and tell me pIC50 for each one, in order.
1. O=C(N1CC2(CC(Cc3ccc(C(F)(F)F)cn3)C2)C1)N1CC2(CC(c3nnc(C4(O)CC4)[nH]3)C2)C1
2. CS(=O)(=O)c1ccccc1-c1ccc(C2CN(C(=O)N3CC4(CC(c5nc(C6CC6)n[nH]5)C4)C3)C2)cc1
3. CS(=O)(=O)c1ccc(-c2ccc(C3CN(C(=O)N4CC5(CC(c6nnc(C7CC7)[nH]6)C5)C4)C3)cc2)c(Cl)c1

1. 9.22
2. 9.77
3. 10.05

###

So I've got pIC50 readings for MAGL protein (Homo sapiens), take a look.
One number for each entry, as −log10 of the molar value.

| molecule | pIC50 |
| --- | --- |
| O=C(N1CC2(CC(Cc3ccc4[nH]ncc4n3)C2)C1)N1CC2(CC(c3nc(C4CC4)n[nH]3)C2)C1 [compound 684] | 8.36 |
| O=C(N1CC2(CC(Cn3cnc(C(F)(F)F)n3)C2)C1)N1CC2(CC(c3nc(C4CC(F)(F)C4)n[nH]3)C2)C1 [compound 441] | 6.38 |

// next item, pIC50 requested
Indicate the recorded pIC50 value for this molecule: N=S(=O)(c1ccc(CC2CC3(C2)CN(C(=O)N2CC4(CC(c5nc(C6CC6)n[nH]5)C4)C2)C3)cc1)C(F)(F)F (stereo not drawn) [compound 2]
9.72

###

Target: MAGL protein (Homo sapiens)
Sequence (Q99685 1-303): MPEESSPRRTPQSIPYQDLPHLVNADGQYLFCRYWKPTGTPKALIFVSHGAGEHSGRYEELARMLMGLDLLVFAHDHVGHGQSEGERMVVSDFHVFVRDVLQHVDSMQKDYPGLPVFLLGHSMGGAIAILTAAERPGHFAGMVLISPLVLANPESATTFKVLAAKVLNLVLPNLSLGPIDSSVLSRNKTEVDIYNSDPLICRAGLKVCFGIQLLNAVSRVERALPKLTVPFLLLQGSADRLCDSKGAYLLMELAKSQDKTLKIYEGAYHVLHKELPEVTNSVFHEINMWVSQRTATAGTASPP
Record form. Attribute: IC50. Fill in for each entry.
Numbers only, in nM.

Worked set:
| molecule | measured target | scale unit | IC50 |
| --- | --- | --- | --- |
| O=C(N1CC(C23CC(Nc4cnc(C(F)(F)F)cn4)(C2)C3)C1)N1CC2(CC(c3nc(C4(O)CC4)n[nH]3)C2)C1 | MAGL protein (Homo sapiens) | nM | 1.36 |
| O=C(N1CC2(CC(c3nc(C4CC4)n[nH]3)C2)C1)N1CC2(CN(Cc3sncc3C(F)(F)F)C2)C1 | MAGL protein (Homo sapiens) | nM | 2.56 |
| N=S(=O)(c1ccc(C2CN(C(=O)N3CC4(CC(c5nc(C6(O)CC6)n[nH]5)C4)C3)C2)cc1)C1CC1 (stereo not shown) | MAGL protein (Homo sapiens) | nM | 37 |

# context switch: different molecule, same IC50
Fill in IC50 for record `O=C(N1CC2(CC(c3nc(C4CC4)n[nH]3)C2)C1)N1CC2(CN(Cc3nc(CC(F)(F)F)no3)C2)C1`
43.8

###

Target: MAGL protein (Homo sapiens, UniProt Q99685)
Sequence (Q99685 1-303): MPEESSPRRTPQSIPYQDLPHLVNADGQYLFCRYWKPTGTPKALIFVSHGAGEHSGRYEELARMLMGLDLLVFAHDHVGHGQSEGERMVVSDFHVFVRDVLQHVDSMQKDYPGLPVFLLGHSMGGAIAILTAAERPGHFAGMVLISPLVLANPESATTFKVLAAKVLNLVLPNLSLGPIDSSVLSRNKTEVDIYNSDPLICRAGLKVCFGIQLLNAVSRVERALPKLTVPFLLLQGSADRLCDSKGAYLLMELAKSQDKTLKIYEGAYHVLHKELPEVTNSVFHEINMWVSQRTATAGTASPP
pIC50: −log10 of the molar value.
Lab note: compare pIC50 against 7. Equal or greater, write criterion met. Smaller, write criterion not met.

The following molecules have reported results that may help.
| molecule | discrete label |
| --- | --- |
| O=C(N1CC(OCC2CC3C(C2)C3(F)F)C1)N1CC2(CC(c3nnc(C4CC4)[nH]3)C2)C1 (stereo not drawn) [compound 327] | criterion met |
| N#Cc1cc(CC2CC3(C2)CN(C(=O)N2CC4(CC(c5nc(C6COC6)n[nH]5)C4)C2)C3)cc(C(F)(F)F)c1 [compound 759] | criterion met |

Dear colleague, could you confirm whether O=C(N1CC2(CC(Cc3ccc4nnc(C(F)(F)F)n4c3)C2)C1)N1CC2(CC(c3nc(C4CC4)n[nH]3)C2)C1 [compound 995] has pIC50 at or above 7?
criterion met

State whether the measured pIC50 reaches 7, counting equality as reaching it, for COc1ccccc1S(=O)(=O)N1CC2(CN(C(=O)N3CC4(CC(c5nnc(C6CC6)[nH]5)C4)C3)C2)C1 [compound 108]
criterion met
